The reader will find reported solubility at 24 h values listed item by item below.
Method: Solubility by shake flask method (24 h, HPLC)
Type: physicochemical
Experimental setup: FasSGF, 37 °C, pH 1.6, fassgf or other biorelevant, thermodynamic from solid, FasSGF, pH 1.6, 37° C., n=3 mean, read-out: Solubility Measurements (mean value) (24 h)

> print(dat)
                                   compound  measurement
1  CC(C)[C@H](N)C(=O)OC[C@H]1Cc2c(cccc2C(C)(C)O)[C@H](C)N1C(=O)Cc1c(Cl)ccc2c1c(Cl)nn2C  ~4800 µg/mL

Query compound follows.
Query block: Look at this compound and give its reported solubility at 24 h. C[C@H]1c2cccc(C(C)(C)O)c2C[C@H](CO)N1C(=O)Cc1c(Cl)ccc2c1c(Cl)nn2C [(Ia), reference compound]
Result block: < 1 µg/mL

----------
The reader will find reported solubility at 24 h values listed item by item below.
Method: Solubility by shake flask method (24 h, HPLC)
Type: physicochemical
Experimental setup: FaSSIF-V2, 37 °C, pH 6.5, fassif, thermodynamic from solid, FaSSIF-V2, pH 6.5, 37° C., n=3 mean, read-out: Solubility Measurements (mean value) (24 h)

> print(dat)
                                   compound  measurement
1  CC(C)[C@H](N)C(=O)OC[C@H]1Cc2c(cccc2C(C)(C)O)[C@H](C)N1C(=O)Cc1c(Cl)ccc2c1c(Cl)nn2C [(II-B)]    ~30 µg/mL

Query block: Look at this compound and give its reported solubility at 24 h. C[C@H]1c2cccc(C(C)(C)O)c2C[C@H](CO)N1C(=O)Cc1c(Cl)ccc2c1c(Cl)nn2C [(Ia), reference compound]
Result block: ~1.5 µg/mL

----------
Method: Solubility by shake flask method (24 h, HPLC)
Type: physicochemical
Experimental setup: phosphate buffer, pH 4, aqueous buffer, thermodynamic from solid, Phosphate buffer (50 mM), pH 4.0, RT, n=3 mean, read-out: Solubility Measurements (mean value) (24 h)
Value type: solubility at 24 h

> print(dat)
                                   compound  measurement
1  CC(C)[C@H](N)C(=O)OC[C@H]1Cc2c(cccc2C(C)(C)O)[C@H](C)N1C(=O)Cc1c(Cl)ccc2c1c(Cl)nn2C [(II-B)]   ~850 µg/mL
2  C[C@H]1c2cccc(C(C)(C)O)c2C[C@H](COP(=O)(O)O)N1C(=O)Cc1c(Cl)ccc2c1c(Cl)nn2C [(II-A)]  ~1000 µg/mL

Query compound follows.
Query block: Look at this compound and give its reported solubility at 24 h. C[C@H]1c2cccc(C(C)(C)O)c2C[C@H](CO)N1C(=O)Cc1c(Cl)ccc2c1c(Cl)nn2C [(Ia), reference compound]
Result block: < 1 µg/mL

----------
Method: Solubility by shake flask method (24 h, HPLC)
Type: physicochemical
Experimental setup: water, pH 7, water, thermodynamic from solid, Water, pH 7.0, RT, n=3 mean, read-out: Solubility Measurements (mean value) (24 h)
Protocol: The solubility of compounds of formula (Ia) obtained according to Example 2.12. and compounds of formula (II-A), (II-Ax) and (II-B) obtained respectively according to Examples 3.2. and 4.2., was determined in different media while using the shake flask method. […] The solubility of compounds (Ia), (II-A), (II-Ax) and (II-B) was determined in triplicate (n=3) and mean value calculated. […]
The reader will find reported solubility at 24 h values listed item by item below.

Answered examples (2):
> print(dat)
                                   compound  measurement
1  C[C@H]1c2cccc(C(C)(C)O)c2C[C@H](COP(=O)(O)O)N1C(=O)Cc1c(Cl)ccc2c1c(Cl)nn2C  ~1000 µg/mL
2  CC(C)[C@H](N)C(=O)OC[C@H]1Cc2c(cccc2C(C)(C)O)[C@H](C)N1C(=O)Cc1c(Cl)ccc2c1c(Cl)nn2C    ~40 µg/mL

Query compound follows.
Query block: Look at this compound and give its reported solubility at 24 h. C[C@H]1c2cccc(C(C)(C)O)c2C[C@H](CO)N1C(=O)Cc1c(Cl)ccc2c1c(Cl)nn2C [(Ia), reference compound]
Result block: < 1 µg/mL
